Source of measurements: ChEMBL document CHEMBL1201862

Test system: SF-539
Assay: NCI tumour cell line growth inhibition, 48 h
Calls of active or inactive are those of the source. Rule as the data show it: active = GI50 up to about 1.1 µM and inactive = higher.
Recorded GI50 for the following compounds

- Compound: "OC1(c2ccc(Cl)cc2)c2ccc(CN3CCCC3)cc2C2=NCCN21 (stereo unspecified)"
  GI50: "13.2 µM (inactive)"
- Compound: "NNC(=O)c1ccccc1NC(=O)/C(=C/c1ccccc1O)NC(=O)c1ccccc1"
  GI50: "20.1 µM (inactive)"
- Compound: "Cc1nn(C(=O)c2ccc(Cl)cc2)c2c1C(c1ccc(O)cc1)SC(=N)N2 (stereo unspecified)"
  GI50: "> 10 µM (inactive)"
- Compound: "CC1(C)N(OC2CCCCO2)C(c2ccccc2)C(c2ccccc2)=[N+]1[O-] (stereo unspecified)"
  GI50: "> 100 µM (inactive)"
- Compound: "O=C(O[C@H](/C=C/c1ccccc1)P1(=O)N(Cc2ccccc2)[C@@H]2CCCC[C@H]2N1Cc1ccccc1)c1ccccc1"
  GI50: "2.98 µM (inactive)"
- Compound: "CN1C(=O)C2C(C1=O)C1(O)c3ccccc3C2(N)c2ccccc21 (stereo unspecified)"
  GI50: "> 100 µM (inactive)"
- Compound: "N#Cc1nc(CCN2C(=O)c3ccccc3C2=O)oc1N"
  GI50: "> 100 µM (inactive)"
- Compound: "S=c1[nH]c(=S)c2nnn(-c3ccccc3)c2[nH]1"
  GI50: "> 100 µM (inactive)"
- Compound: "COc1cc([C@@H]2c3cc4c(cc3[C@@H](OC3OC5COC(C)OC5C(O)C3O)[C@H]3COC(=O)[C@H]23)OCO4)cc(OC)c1O (stereo partly specified)"
  GI50: "3.27 µM (inactive)"
- Compound: "Cc1cccc(C(C)(C)C)c1NC(=O)CC1C(=O)Nc2ccccc2S1(=O)=O (stereo unspecified)"
  GI50: "3.14 µM (inactive)"
- Compound: "O=Cn1c2ccccc2c2ccccc21"
  GI50: "> 100 µM (inactive)"

###

System: KM12
Assay: NCI tumour cell line growth inhibition, 48 h
Activity calls are given as the source filed them. No stated cut-off is given here; in the data, active = GI50 up to about 1.1 µM and inactive = higher.

- Compound: "O=C1c2ccccc2-c2ccccc2C(=O)C1(Br)Br"
  Assayed System: "KM12"
  GI50: "17.7 µM (inactive)"
- Compound: "COc1ccc(/C=C(\\NC(=O)c2ccccc2)C(=O)NN(C)c2ccnc3cc(Cl)ccc23)cc1OC"
  Assayed System: "KM12"
  GI50: "17.6 µM (inactive)"
- Compound: "N#C/N=C1\\NC(Cc2ccccc2)C(=O)N1CCc1c[nH]c2ccccc12 (stereo not given)"
  Assayed System: "KM12"
  GI50: "29.4 µM (inactive)"
- Compound: "c1ccc2c[n+](CCCCCCCCCC[n+]3ccc4ccccc4c3)ccc2c1"
  Assayed System: "KM12"
  GI50: "> 5.68 µM (inactive)"
- Compound: "CC(C)(C)N/N=C(\\C(=O)Nc1nnc(S)[nH]1)C1C(=O)Nc2ccccc2[S+]1[O-] (stereo not given)"
  Assayed System: "KM12"
  GI50: "> 100 µM (inactive)"
- Compound: "COc1cc(/C=C2/SC(c3ccccc3)N(c3cccc([N+](=O)[O-])c3)C2=O)cc(OC)c1OC (stereo not given)"
  Assayed System: "KM12"
  GI50: "95.1 µM (inactive)"
- Compound: "COC(=O)c1cc(Br)c(C(=O)C(Cl)(Cl)Cl)[nH]1"
  Assayed System: "KM12"
  GI50: "> 100 µM (inactive)"
- Compound: "COC(=O)C(c1n[nH]c2ccccc12)C(C(=O)OC)c1n[nH]c2ccccc12 (stereo not given)"
  Assayed System: "KM12"
  GI50: "> 100 µM (inactive)"
- Compound: "C=CCC1(C#N)C(=S)NC2=C(C(=O)CC(C)(C)C2)C1c1ccccc1 (stereo not given)"
  Assayed System: "KM12"
  GI50: "32.7 µM (inactive)"
- Compound: "Clc1ccccc1-c1nc2cc(C34CC5CC(CC(C5)C3)C4)ccc2[nH]1"
  Assayed System: "KM12"
  GI50: "53.2 µM (inactive)"

###

Items are presented alongside their recorded GI50.
Tested on: SR
Test: NCI tumour cell line growth inhibition, 48 h
Active and inactive are the calls of the source. Rule as the data show it: active = GI50 up to about 1.1 µM and inactive = higher.

- Compound: "N#Cc1c(-c2ccc(Cl)cc2)cc(-c2ccc(Nc3ccnc4cc(C(F)(F)F)ccc34)cc2)nc1N"
  GI50: "3.74 µM (inactive)"
- Compound: "CCOC(=O)NC(OCCN(C)C)(C(F)(F)F)C(F)(F)F"
  GI50: "> 100 µM (inactive)"
- Compound: "COc1ccc(C2C3=C(CCCC3=O)N(c3ccccc3)C3=C2C(=O)CCC3)cc1"
  GI50: "> 100 µM (inactive)"
- Compound: "NS(=O)(=O)c1cc(S(N)(=O)=O)c(NC(=O)N(c2ccccc2)c2ccccc2)c(Cl)c1Cl"
  GI50: "18.4 µM (inactive)"
- Compound: "[O-][S+]1C(=c2ccc(=C3Sc4ccccc4S3)cc2)Sc2ccccc21 (centres undefined)"
  GI50: "89.5 µM (inactive)"
- Compound: "COC(=O)c1nc(-c2nc(CCNC(=O)OC(C)(C)C)sc2Cl)sc1Cl"
  GI50: "35.2 µM (inactive)"
- Compound: "O=Cc1cccc2c1Oc1c(cccc1C(=O)O)S2"
  GI50: "< 0.01 µM (active)"
- Compound: "CCCCC1Cc2cc(OC)ccc2-c2n1c1cc(OC)ccc1[n+]2C.CCCCC1Cc2cc(OC)ccc2-c2n1c1ccc(OC)cc1[n+]2C (centres undefined)"
  GI50: "2.44 µM (inactive)"
- Compound: "Nc1nc2c(ncn2CCOC(c2ccccc2)P(=O)(O)O)c(=O)[nH]1 (centres undefined)"
  GI50: "> 100 µM (inactive)"
- Compound: "CCOc1cccc(/C=N\\c2ccccc2SSc2ccccc2/N=C\\c2cccc(OCC)c2O)c1O"
  GI50: "4.25 µM (inactive)"
- Compound: "COc1cc(/C=C/C(=N\\NC(=S)NN)c2sc(NNC(C)=O)nc2C)ccc1O"
  GI50: "> 100 µM (inactive)"
- Compound: "CCN(CC)CCNC(=O)c1cc2cc(NC(=O)c3cc4cc(NC(=O)c5cc6cc([N+](=O)[O-])ccc6[nH]5)ccc4[nH]3)ccc2[nH]1"
  GI50: "< 0.01 µM (active)"
- Compound: "C[C@]12CC[C@H](O)CC1=CC[C@@H]1[C@@H]2CC[C@]2(C)c3nc(Cl)ccc3C[C@@H]12"
  GI50: "11.4 µM (inactive)"
- Compound: "Nc1nccc(NCC2(CO)CC(CCc3ccccc3)C2)n1 (centres undefined)"
  GI50: "8.71 µM (inactive)"
- Compound: "O=C1c2c(Br)sc(Br)c2[C@H]2OC(=S)N[C@@H]12"
  GI50: "1.67 µM (inactive)"
- Compound: "CN(C)CCNC(=O)c1ccc(NCCCN(C)CCCNc2ccc(C(=O)NCCN(C)C)c3nc4ccc([N+](=O)[O-])cc4c(O)c23)c2c(O)c3cc([N+](=O)[O-])ccc3nc12"
  GI50: "0.0311 µM (active)"
- Compound: "C/C(O)=C1\\CC2CN3CCc4c([nH]c5ccccc45)C3CC2CC1=O (centres undefined)"
  GI50: "23.4 µM (inactive)"
- Compound: "CCC1C(=O)OCc2c1cc1n(c2=O)Cc2ccccc2-1 (centres undefined)"
  GI50: "> 100 µM (inactive)"
- Compound: "CC(C)(C)N/N=C(\\C(=O)Nc1nnc(S)[nH]1)C1C(=O)Nc2ccccc2[S+]1[O-] (centres undefined)"
  GI50: "> 100 µM (inactive)"

###

Documented GI50 across a set of compounds
System: IGROV-1
Test: NCI tumour cell line growth inhibition, 48 h
The source made the active and inactive calls. Cut-off read from the data, not from the text of the source: active = GI50 up to about 1.1 µM and inactive = higher.
Measured Endpoint: GI50

- Compound: "CN(C)C(=S)/N=c1\\sn(C)/c(=N\\C(=S)N(C)C)n1C"
  Val: "> 100 µM (inactive)"
- Compound: "CC(=O)OCCOCNC(=S)N/N=C/c1ccc([N+](=O)[O-])o1"
  Val: "> 100 µM (inactive)"
- Compound: "COc1ccc(C2C3=C(CCCC3=O)N(c3ccccc3)C3=C2C(=O)CCC3)cc1"
  Val: "> 100 µM (inactive)"
- Compound: "CC(=O)OC12c3ccccc3C(c3ccccc31)C1C(=O)N(Nc3ccccc3)C(=O)C12 (stereo unspecified)"
  Val: "> 100 µM (inactive)"
- Compound: "CC(C)C1OC23CCCCC2C(C#N)(C#N)C1(C#N)C(=N)O3 (stereo unspecified)"
  Val: "> 10 µM (inactive)"
- Compound: "CC(=O)OC[C@H]1On2nnnc2[C@H](OC(C)=O)[C@@H](OC(C)=O)[C@@H]1OC(C)=O"
  Val: "> 100 µM (inactive)"
- Compound: "COC(=O)c1cc(Br)c(C(=O)C(Cl)(Cl)Cl)[nH]1"
  Val: "> 100 µM (inactive)"
- Compound: "CCNc1cc2c3c(c1)CCN3CCC2"
  Val: "> 10 µM (inactive)"
- Compound: "CN(C)CCNC(=O)c1cccc2[nH]c(-c3ccccn3)nc12"
  Val: "35.1 µM (inactive)"
- Compound: "CCOc1cccc(/C=N\\c2ccccc2SSc2ccccc2/N=C\\c2cccc(OCC)c2O)c1O"
  Val: "2.92 µM (inactive)"
- Compound: "NC(=O)NNC(=O)CCn1[nH]c(=O)c(Cl)c(Cl)c1=O"
  Val: "> 100 µM (inactive)"
